Values from the supplement of paper PMC10567573

B1: CCND1 (parent)
chain: PEAEENKQIIRKHAQTFVALCATD

variants of: B1; assay: protein stability index of a GFP-peptide fusion (GPS, HEK-293T) (PSI 1-6); higher = more stable; settings: c terminus: a fixed tail appended;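 further: lentivirally expressed fusions sorted by FACS into six bins by GFP to DsRed ratio, PSI derived from sequencing read proportions per bin multiplied by bin number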

{"variant-code": "A3K", "protein stability index": 2.8}
{"variant-code": "T16P", "protein stability index": 4.62}
{"variant-code": "L20V", "protein stability index": 2.87}
{"variant-code": "A14W", "protein stability index": 1.94}
{"variant-code": "I10A", "protein stability index": 2.79}
{"variant-code": "I9H", "protein stability index": 3.58}
{"variant-code": "E2G", "protein stability index": 2.92}
{"variant-code": "L20C", "protein stability index": 3.82}
{"variant-code": "E5W", "protein stability index": 2.04}
{"variant-code": "A22M", "protein stability index": 2.67}
{"variant-code": "K7R", "protein stability index": 3.25}
{"variant-code": "H13N", "protein stability index": 2.53}
{"variant-code": "K7N", "protein stability index": 3.78}
{"variant-code": "I10D", "protein stability index": 3.14}
{"variant-code": "N6T", "protein stability index": 2}
{"variant-code": "F17M", "protein stability index": 5.03}
{"variant-code": "A3W", "protein stability index": 2.85}
{"variant-code": "A22S", "protein stability index": 3.19}
{"variant-code": "A19L", "protein stability index": 2.59}
{"variant-code": "D24Q", "protein stability index": 3.8}
{"variant-code": "A14Y", "protein stability index": 2.44}
{"variant-code": "A19M", "protein stability index": 2.55}
{"variant-code": "A19D", "protein stability index": 2.6}
{"variant-code": "E4T", "protein stability index": 2.1}
{"variant-code": "I9S", "protein stability index": 2.46}
{"variant-code": "E4W", "protein stability index": 1.95}
{"variant-code": "Q8C", "protein stability index": 2.24}
{"variant-code": "L20S", "protein stability index": 4.43}
{"variant-code": "R11F", "protein stability index": 2.64}
{"variant-code": "A19N", "protein stability index": 2.92}
{"variant-code": "N6Q", "protein stability index": 2.59}
{"variant-code": "F17K", "protein stability index": 5.34}
{"variant-code": "F17I", "protein stability index": 4.84}
{"variant-code": "I10C", "protein stability index": 3.13}
{"variant-code": "Q15I", "protein stability index": 2.33}
{"variant-code": "A3C", "protein stability index": 2.31}
{"variant-code": "E4I", "protein stability index": 2.2}
{"variant-code": "F17P", "protein stability index": 5.15}
{"variant-code": "H13I", "protein stability index": 1.87}
{"variant-code": "P1A", "protein stability index": 3.14}
{"variant-code": "N6K", "protein stability index": 2.38}
{"variant-code": "L20R", "protein stability index": 2.09}
{"variant-code": "N6S", "protein stability index": 2.12}
{"variant-code": "I9N", "protein stability index": 3.56}
{"variant-code": "H13C", "protein stability index": 2.65}
{"variant-code": "N6M", "protein stability index": 2.39}
{"variant-code": "P1N", "protein stability index": 2.52}
{"variant-code": "A22R", "protein stability index": 3.16}
{"variant-code": "I10F", "protein stability index": 2.48}
{"variant-code": "T23L", "protein stability index": 2.35}
{"variant-code": "V18F", "protein stability index": 4.28}
{"variant-code": "I10N", "protein stability index": 3.04}
